assay: xn = mol fraction of the nth substance listed, in the solute-free solvent; conditions: 318.15 K; x2 = 0.4
Each record's class is read off its solubility (g/100 g solution) using these ranges: b0: < 0.8; b1: ≥ 0.8 and < 5; b2: ≥ 5

molecule	classification
CN1CCN(C(=O)OC2c3nccnc3C(=O)N2c2ccc(Cl)cn2)CC1 (configuration not stated) + CCO + O	b1
O=C(CC(=O)c1ccccc1)c1ccccc1 + CO + O	b0
CCOC(=O)C1=CC2(CC)CCCN3CCc4c(n1c1ccccc41)C32 (configuration not stated) + CCO + O	b0
CN1CCN(C(=O)OC2c3nccnc3C(=O)N2c2ccc(Cl)cn2)CC1 (configuration not stated) + C1CCOC1 + O	b1
CCCCN1CCCCC1C(=O)Nc1c(C)cccc1C.Cl.O (configuration not stated) + CCO + O	b2
O=C(CC(=O)c1ccccc1)c1ccccc1 + CC(C)O + O	b1
CC1(C)SC2C(NC(=O)C(NC(=O)N3CCNC3=O)c3ccccc3)C(=O)N2C1C(=O)O (configuration not stated) + CO + CC(C)O	b0
CN1CCN(C(=O)OC2c3nccnc3C(=O)N2c2ccc(Cl)cn2)CC1 (configuration not stated) + CC#N + O	b1
CCCCN1CCCCC1C(=O)Nc1c(C)cccc1C.Cl.O (configuration not stated) + CO + O	b2
O=C(CC(=O)c1ccccc1)c1ccccc1 + CCO + O	b1
O=c1ccc2ccccc2o1 + CO + O	b2
